B1: TPR 5TU (parent)
chain: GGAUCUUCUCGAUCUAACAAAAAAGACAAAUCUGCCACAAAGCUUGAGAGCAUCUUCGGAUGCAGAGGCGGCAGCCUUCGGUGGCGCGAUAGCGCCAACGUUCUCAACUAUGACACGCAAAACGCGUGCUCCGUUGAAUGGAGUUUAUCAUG

- Variants of: B1
- test: polymerase ribozyme fitness, log enrichment relative to wild type (log ratio); higher = more active; in vitro selection for triplet polymerase activity
Variants at the floor of the assay were thinned out.
// polymerase ribozyme fitness (log ratio) lookup, one value per entry
measurement-name: polymerase ribozyme fitness (log ratio)

>>> numeric_readout("A17U C87U")
-1.75
>>> numeric_readout("U56A C75U G143A")
-0.711
>>> numeric_readout("U61A C125A")
-2.73
>>> numeric_readout("G11C G59A A73G U82G")
-2.2
>>> numeric_readout("U7C C18G G94A G117C")
-3.67
>>> numeric_readout("A60U G92U G141C")
-2.82
